Documented GI50 across a set of compounds
# Test system: K562
# assay.notes: NCI tumour cell line growth inhibition, 48 h
Where a name gives a salt, the structure may show the parent alone. Active and inactive are the calls of the source. Rule as the data show it: active = GI50 up to about 1.1 µM and inactive = higher.

[Q] Report GI50 for COc1cc(/C=C2\N=C(c3ccccc3)N(c3nc4cc(C)c(C)cc4s3)C2=O)cc(OC)c1OC please.
[A] 35.4 µM (inactive)

[Q] Report GI50 for NC(=O)CCC(NC(=O)Cc1ccccc1)C(=O)O (stereo not given) please.
[A] > 2470 µM (inactive)

[Q] Report GI50 for COC1(OC)CCc2c(sc3ncnc(Nc4cccc(Br)c4)c23)C1 please.
[A] 26.2 µM (inactive)

[Q] Report GI50 for Cc1ccccc1Nc1cn(CCOc2ccccc2)c(=O)n(CCOc2ccccc2)c1=O please.
[A] > 100 µM (inactive)

[Q] Report GI50 for NCCCNCCCCNCCCN [SPERMINE TETRAHYDROCHLORIDE] please.
[A] 2.33 µM (inactive)
